Values compiled from paper PMC2615555.

- ASSAYED_SYSTEM: I-A^d (Mus musculus, UniProt P01921+P04228)
- Sequence (P04228 24-256): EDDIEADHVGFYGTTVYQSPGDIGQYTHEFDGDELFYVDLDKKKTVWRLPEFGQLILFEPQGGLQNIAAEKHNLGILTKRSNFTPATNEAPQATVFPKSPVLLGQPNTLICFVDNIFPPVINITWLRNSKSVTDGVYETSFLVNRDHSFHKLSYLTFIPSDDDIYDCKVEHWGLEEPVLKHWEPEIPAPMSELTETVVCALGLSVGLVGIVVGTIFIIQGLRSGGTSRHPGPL
- Sequence (P01921 28-265): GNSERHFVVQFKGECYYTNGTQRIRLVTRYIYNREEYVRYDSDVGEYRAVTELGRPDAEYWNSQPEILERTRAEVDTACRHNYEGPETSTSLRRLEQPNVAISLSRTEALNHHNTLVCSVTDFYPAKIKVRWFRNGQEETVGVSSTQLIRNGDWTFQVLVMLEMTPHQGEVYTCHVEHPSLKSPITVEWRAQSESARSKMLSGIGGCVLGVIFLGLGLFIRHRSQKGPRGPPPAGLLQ
- PROTOCOL_DETAILS: biochemical
- Type: binding, BALB/c mouse
- STUDY_CONDITIONS: Binding Assay IC50, I-A^d (membrane 15mers)
Parameter: IC50. Scope: all listed entries.
Please state the number and follow it with the unit.

* CC(C)C[C@H](NC(=O)[C@H](C)NC(=O)[C@@H](NC(=O)[C@@H](NC(=O)[C@H](C)NC(=O)[C@H](Cc1ccccc1)NC(=O)[C@H](Cc1ccccc1)NC(=O)[C@@H]1CCCN1C(=O)[C@H](CC(N)=O)NC(=O)[C@H](CCCNC(=N)N)NC(=O)[C@@H](NC(=O)[C@H](Cc1ccccc1)NC(=O)[C@H](Cc1c[nH]c2ccccc12)NC(=O)[C@H](CCCNC(=N)N)NC(=O)[C@@H](N)CCC(=O)O)C(C)C)C(C)C)[C@@H](C)O)C(=O)O [M33–47] | 7.3 nM

Data request: Item under review: CC[C@H](C)[C@H](NC(=O)[C@@H](NC(=O)[C@H](CC(C)C)NC(=O)[C@H](C)NC(=O)[C@@H](NC(=O)[C@@H](NC(=O)[C@H](C)NC(=O)[C@H](Cc1ccccc1)NC(=O)[C@H](Cc1ccccc1)NC(=O)[C@@H]1CCCN1C(=O)[C@H](CC(N)=O)NC(=O)[C@H](CCCNC(=N)N)NC(=O)[C@@H](N)C(C)C)C(C)C)[C@@H](C)O)[C@@H](C)O)C(=O)N[C@@H](C)C(=O)N[C@@H](Cc1ccc(O)cc1)C(=O)O [M37–51] . Reported IC50?
Data returned: 40 nM

###

Overview of reported IC50 across a group of molecules:
- ASSAYED_SYSTEM: I-A^d (Mus musculus, UniProt P01921+P04228)
- PROTOCOL_DETAILS: biochemical
- Assay type: binding, BALB/c mouse
- STUDY_CONDITIONS: Binding Assay IC50, I-A^d (membrane 15mers)
All answers are understood in µM, so give the number only.

# count of solved cases: 3
• CC[C@H](C)[C@H](N)C(=O)N[C@@H](C)C(=O)N[C@@H](Cc1ccc(O)cc1)C(=O)N[C@@H](CC(C)C)C(=O)N[C@H](C(=O)NCC(=O)N[C@@H](CO)C(=O)N[C@@H](CC(N)=O)C(=O)N[C@@H](CCSC)C(=O)N[C@H](C(=O)N[C@@H](CCC(N)=O)C(=O)N[C@@H](CCCNC(=N)N)C(=O)N[C@H](C(=O)N[C@H](C(=O)N[C@H](C(=O)O)[C@@H](C)CC)C(C)C)C(C)C)[C@@H](C)O)C(C)C [M49–63] = 0.383
• CC(C)C[C@H](NC(=O)CNC(=O)[C@H](Cc1c[nH]cn1)NC(=O)[C@H](CC(N)=O)NC(=O)[C@H](CCC(=O)O)NC(=O)[C@H](Cc1c[nH]cn1)NC(=O)[C@@H](NC(=O)[C@@H]1CCCN1)[C@@H](C)O)C(=O)N[C@@H](CCCCN)C(=O)N[C@H](C(=O)N[C@@H](CCCNC(=N)N)C(=O)N[C@@H](CCC(N)=O)C(=O)N[C@@H](CCC(=O)O)C(=O)N[C@@H](CCCCN)C(=O)N[C@@H](Cc1c[nH]c2ccccc12)C(=O)O)[C@@H](C)O [M5–19] = 13.2
• CSCC[C@H](NC(=O)[C@H](CCCNC(=N)N)NC(=O)CNC(=O)[C@@H](NC(=O)[C@H](CCSC)NC(=O)[C@H](Cc1c[nH]c2ccccc12)NC(=O)[C@H](CCCCN)NC(=O)[C@@H](N)CCC(=O)O)[C@@H](C)O)C(=O)NCC(=O)N[C@@H](CCC(=O)O)C(=O)N[C@@H](CCCNC(=N)N)C(=O)N[C@@H](CCC(N)=O)C(=O)N[C@@H](CC(C)C)C(=O)N[C@@H](CCC(N)=O)C(=O)N[C@@H](CCCCN)C(=O)O [M17–31] = 20.4

Turning now to a further record.
Data request: Return reported IC50; argument: CC[C@H](C)[C@H](NC(=O)[C@H](CCCCN)NC(=O)[C@H](CCC(N)=O)NC(=O)[C@H](CC(C)C)NC(=O)[C@H](CCC(N)=O)NC(=O)[C@H](CCCNC(=N)N)NC(=O)[C@H](CCC(=O)O)NC(=O)CNC(=O)[C@H](CCSC)NC(=O)[C@H](CCCNC(=N)N)NC(=O)CNC(=O)[C@@H](N)[C@@H](C)O)C(=O)N[C@@H](CCC(=O)O)C(=O)N[C@@H](CCCNC(=N)N)C(=O)N[C@@H](Cc1c[nH]c2ccccc12)C(=O)O [M21–35]
Data returned: 42.5

###

- ASSAYED_SYSTEM: I-E^d (Mus musculus, UniProt P01904+P01915)
- Sequence (P01904 26-255): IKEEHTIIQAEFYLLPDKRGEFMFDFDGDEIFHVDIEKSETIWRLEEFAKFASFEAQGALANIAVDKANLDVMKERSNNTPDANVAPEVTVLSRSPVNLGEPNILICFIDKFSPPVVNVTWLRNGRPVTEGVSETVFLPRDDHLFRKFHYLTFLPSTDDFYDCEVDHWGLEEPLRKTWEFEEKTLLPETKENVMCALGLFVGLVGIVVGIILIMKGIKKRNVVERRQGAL
- Sequence (P01915 27-264 limits assumed): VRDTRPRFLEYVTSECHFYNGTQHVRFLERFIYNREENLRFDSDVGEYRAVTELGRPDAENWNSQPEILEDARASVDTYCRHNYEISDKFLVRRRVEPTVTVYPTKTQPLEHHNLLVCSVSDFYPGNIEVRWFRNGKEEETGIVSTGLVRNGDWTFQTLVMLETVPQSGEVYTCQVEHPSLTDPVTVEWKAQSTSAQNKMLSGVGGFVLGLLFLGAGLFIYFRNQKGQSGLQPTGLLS
- PROTOCOL_DETAILS: biochemical
MEASURED_PARAMETER: IC50

- CC[C@H](C)[C@H](NC(=O)[C@H](CCCCN)NC(=O)[C@H](CCC(N)=O)NC(=O)[C@H](CC(C)C)NC(=O)[C@H](CCC(N)=O)NC(=O)[C@H](CCCNC(=N)N)NC(=O)[C@H](CCC(=O)O)NC(=O)CNC(=O)[C@H](CCSC)NC(=O)[C@H](CCCNC(=N)N)NC(=O)CNC(=O)[C@@H](N)[C@@H](C)O)C(=O)N[C@@H](CCC(=O)O)C(=O)N[C@@H](CCCNC(=N)N)C(=O)N[C@@H](Cc1c[nH]c2ccccc12)C(=O)O [M21–35]: > 45 µM
- CC[C@H](C)[C@H](NC(=O)[C@@H](NC(=O)[C@@H](NC(=O)[C@H](CCCNC(=N)N)NC(=O)[C@H](CCC(N)=O)NC(=O)[C@@H](NC(=O)[C@H](CCSC)NC(=O)[C@H](CC(N)=O)NC(=O)[C@H](CO)NC(=O)CNC(=O)[C@@H](N)C(C)C)[C@@H](C)O)C(C)C)C(C)C)C(=O)N[C@@H](C)C(=O)N[C@@H](CC(C)C)C(=O)N[C@@H](CC(C)C)C(=O)N[C@H](C(=O)O)C(C)C [M53–67]: 32.3 µM
- CC[C@H](C)[C@H](NC(=O)[C@@H](NC(=O)[C@H](CC(C)C)NC(=O)[C@H](C)NC(=O)[C@@H](N)[C@@H](C)O)[C@@H](C)O)C(=O)N[C@@H](C)C(=O)N[C@@H](Cc1ccc(O)cc1)C(=O)N[C@@H](CC(C)C)C(=O)N[C@H](C(=O)NCC(=O)N[C@@H](CO)C(=O)N[C@@H](CC(N)=O)C(=O)N[C@@H](CCSC)C(=O)N[C@H](C(=O)N[C@@H](CCC(N)=O)C(=O)O)[C@@H](C)O)C(C)C [M45–59]: > 45 µM

Data request: Could you tell me which IC50 is on file for CC[C@H](C)[C@H](NC(=O)[C@@H](NC(=O)[C@H](CC(C)C)NC(=O)[C@H](C)NC(=O)[C@@H](NC(=O)[C@@H](NC(=O)[C@H](C)NC(=O)[C@H](Cc1ccccc1)NC(=O)[C@@H](N)Cc1ccccc1)C(C)C)[C@@H](C)O)[C@@H](C)O)C(=O)N[C@@H](C)C(=O)N[C@@H](Cc1ccc(O)cc1)C(=O)N[C@@H](CC(C)C)C(=O)N[C@H](C(=O)NCC(=O)N[C@@H](CO)C(=O)O)C(C)C [M41–55] ?
Data returned: > 45 µM

Data request: Repeat for the following molecule: CSCC[C@H](NC(=O)[C@H](CCCNC(=N)N)NC(=O)CNC(=O)[C@@H](NC(=O)[C@H](CCSC)NC(=O)[C@H](Cc1c[nH]c2ccccc12)NC(=O)[C@H](CCCCN)NC(=O)[C@H](CCC(=O)O)NC(=O)[C@H](CCC(N)=O)NC(=O)[C@H](CCCNC(=N)N)NC(=O)[C@@H](NC(=O)[C@@H](N)CCCCN)[C@@H](C)O)[C@@H](C)O)C(=O)NCC(=O)N[C@@H](CCC(=O)O)C(=O)N[C@@H](CCCNC(=N)N)C(=O)O [M13–27]
Data returned: > 45 µM

###

Peptide text beside a SMILES is read from it.
Record: pIC50 reported on H2-L^d (Mus musculus, UniProt P01897).
Sequence (P01897 25-362): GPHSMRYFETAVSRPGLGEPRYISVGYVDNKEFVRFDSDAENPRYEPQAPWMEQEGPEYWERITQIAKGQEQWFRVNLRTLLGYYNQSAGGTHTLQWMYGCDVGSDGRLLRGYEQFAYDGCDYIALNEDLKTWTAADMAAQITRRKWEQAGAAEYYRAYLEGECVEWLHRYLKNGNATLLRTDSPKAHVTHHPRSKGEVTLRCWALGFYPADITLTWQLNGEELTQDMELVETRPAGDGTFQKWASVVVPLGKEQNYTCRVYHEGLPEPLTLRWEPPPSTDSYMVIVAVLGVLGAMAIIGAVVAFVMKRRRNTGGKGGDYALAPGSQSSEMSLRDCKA
Sequence (P61769 21-119 partner): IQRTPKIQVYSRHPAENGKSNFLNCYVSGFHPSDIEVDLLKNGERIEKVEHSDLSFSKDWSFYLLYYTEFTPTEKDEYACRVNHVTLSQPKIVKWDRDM
Units for pIC50: none; it is -log10 of a concentration expressed in mol/L.

Previously resolved entries follow.
* CC[C@H](C)[C@H](NC(=O)[C@@H](N)C(C)C)C(=O)N[C@H](C(=O)N[C@@H](C)C(=O)N[C@@H](CC(=O)O)C(=O)N[C@@H](CC(=O)O)C(=O)N[C@@H](CC(C)C)C(=O)N[C@H](C(=O)N[C@@H](C)C(=O)O)[C@@H](C)O)C(C)C [E334–342] (H-VIVADDLTA-OH) | 4.72
* CC[C@H](C)[C@H](NC(=O)[C@@H](NC(=O)[C@@H]1CCCN1C(=O)[C@@H](NC(=O)[C@H](CCCNC(=N)N)NC(=O)[C@@H](N)CS)[C@@H](C)CC)C(C)C)C(=O)N[C@H](C(=O)N[C@@H](C)C(=O)N[C@@H](CC(=O)O)C(=O)O)C(C)C [E330–338] (H-CRIPVIVAD-OH) | 4.27
* CC[C@H](C)[C@H](N)C(=O)N1CCC[C@H]1C(=O)N[C@H](C(=O)N[C@H](C(=O)N[C@H](C(=O)N[C@@H](C)C(=O)N[C@@H](CC(=O)O)C(=O)N[C@@H](CC(=O)O)C(=O)N[C@@H](CC(C)C)C(=O)O)C(C)C)[C@@H](C)CC)C(C)C [E332–340] (H-IPVIVADDL-OH) | 7.25

Data request: Please give the measured pIC50 for this compound: CC[C@H](C)[C@H](NC(=O)[C@@H](NC(=O)[C@@H]1CCCN1)C(C)C)C(=O)N[C@H](C(=O)N[C@@H](C)C(=O)N[C@@H](CC(=O)O)C(=O)N[C@@H](CC(=O)O)C(=O)N[C@@H](CC(C)C)C(=O)N[C@H](C(=O)O)[C@@H](C)O)C(C)C [E333–341] (H-PVIVADDLT-OH)
Data returned: 5.43

Data request: Also need CC(C)C[C@H](NC(=O)[C@@H](NC(=O)[C@H](C)NC(=O)[C@H](CC(N)=O)NC(=O)[C@H](Cc1ccc(O)cc1)NC(=O)[C@H](CS)NC(=O)[C@@H](NC(=O)[C@H](CCCCN)NC(=O)[C@@H](N)CCCNC(=N)N)C(C)C)C(C)C)C(=O)O , thanks.
Data returned: 4.40

Data request: Okay, and CC[C@H](C)[C@H](NC(=O)[C@H](CCCCN)NC(=O)[C@@H](NC(=O)[C@H](Cc1c[nH]cn1)NC(=O)[C@@H](NC(=O)[C@H](CC(C)C)NC(=O)[C@@H](NC(=O)[C@H](C)N)C(C)C)[C@@H](C)O)C(C)C)C(=O)N[C@@H](CC(N)=O)C(=O)O [E63–71] (H-AVLTHVKIN-OH) ?
Data returned: 4.68
